Please provide measured reverse-splicing fitness for the entries that follow.
B1: Azoarcus group I ribozyme (parent)
chain: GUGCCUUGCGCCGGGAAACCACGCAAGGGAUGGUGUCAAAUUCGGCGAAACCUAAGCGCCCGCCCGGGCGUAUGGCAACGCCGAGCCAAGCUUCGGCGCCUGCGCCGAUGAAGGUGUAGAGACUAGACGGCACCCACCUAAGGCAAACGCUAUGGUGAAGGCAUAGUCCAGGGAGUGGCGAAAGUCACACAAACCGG

Variants of: B1
assayName: reverse-splicing fitness (ratio to wild type); higher = more active; in vitro selection; Mg2+ level not given
Answers are plain numbers.

Here is how some variants turned out for reverse-splicing fitness.
| mutationString | numericReadout |
| --- | --- |
| C82G A145U C150A C169G U176G | 0.00436 |
| A120C C150U C169A U176A | 0.0206 |
| C82G A111U A120U A145G C150U C169A | 0.00699 |
| C82G A111G A120G C150U C169U U176A | 0.0189 |
| C82G A120C C150G C169U U176G | 0.00535 |
| C82U A111U A120G A145U C150A C169A | 0.00884 |
| C82U A111U C150G | 0.0213 |
| A145U C150U C169G U176A | 0.0606 |

For the 2 variants below, give their reverse-splicing fitness values.
1. C82G A120C A145U C169U U176A
2. C82U A111G A120U C150U C169G U176C

Found:
0.0158
0.00322

For the 8 variants below, give their reverse-splicing fitness values.
1. C82G A111U A120G C169A
2. C82A A120G C150U C169G
3. A111G A120G C150U C169A U176A
4. C82G A120C A145U C150U C169U U176A
5. A111C A120G A145G C150G C169U U176A
6. C82G A120C C150U C169U U176G
7. C82A A111U A120G A145C C150U C169A U176C
8. C82U A120U A145C C169U U176G

Found:
0.00993
0.0157
0.0291
0.0152
0.0115
0.00634
0.00677
0.00172

For the 8 variants below, give their reverse-splicing fitness values.
1. A111G A120U A145G
2. C82A A120G A145G C150A C169A U176A
3. C82U A111U A120C A145C C150U
4. A111U A120C A145G C150U
5. C82A C150A C169A U176G
6. C82G A111C A120G A145C C150U
7. A111U C150U U176G
8. A111C A120C A145U C169U U176G

Found:
0.667
0.0183
0.0119
0.495
0.007
0.00925
0.251
0.00761

For the 5 variants below, give their reverse-splicing fitness values.
1. C82U A111C A120U A145U C150U C169U U176A
2. C82G A111G A120G A145G C150U C169A
3. A111G A120G C150A C169G
4. C82G A111G A120C A145U C150U C169A U176C
5. C82G C150A U176A

Found:
1. 0.00267
2. 0.0144
3. 0.0355
4. 0.0137
5. 0.0422
